- Assay Method Text: The drug is tested on WLS-350 corresponding to human gut metagenome with ENA study accession number: PRJEB37062 and ENA sample accession number: ERS12561789 for biotransformation under anaerobic condition. The drug concentrations were measured over 9 timepoints collected between 0 and 24 hours of incubation by liquid-chromatography-coupled mass spectrometry (LC–MS); further: call rule not given here
- Run Conditions: 2 µM
Measurement Name: Bacterial Biotransformation

Compound | Measurement Name | Value Measured
CN(C)C(=O)Oc1cc(OC(=O)N(C)C)cc(C(O)CNC(C)(C)C)c1 (stereo not drawn) [BAMBUTEROL] | Bacterial Biotransformation | Compound metabolized
CC(N)C12CC3CC(CC(C3)C1)C2 (stereo not drawn) [RIMANTADINE] | Bacterial Biotransformation | Compound NOT metabolized
CC(C)C[C@H]1C(=O)N2CCC[C@H]2[C@]2(O)O[C@](NC(=O)[C@@H]3C=C4c5cccc6[nH]c(Br)c(c56)C[C@H]4N(C)C3)(C(C)C)C(=O)N12.CS(=O)(=O)O [BROMOCRIPTINE MESYLATE] | Bacterial Biotransformation | Compound metabolized
COc1ccc(Cc2nccc3cc(OC)c(OC)cc23)cc1OC [PAPAVERINE] | Bacterial Biotransformation | Compound metabolized
CCOC(=O)C1=C[C@]2(CC)CCCN3CCc4c(n1c1ccccc41)[C@@H]32 [VINPOCETINE] | Bacterial Biotransformation | Compound metabolized
C[N+]12CCC(CC1)C(OC(=O)C(O)(c1ccccc1)c1ccccc1)C2.[Br-] (stereo not drawn) [CLIDINIUM BROMIDE] | Bacterial Biotransformation | Compound metabolized
CN[C@H]1CC[C@@H](c2ccc(Cl)c(Cl)c2)c2ccccc21 [SERTRALINE] | Bacterial Biotransformation | Compound NOT metabolized
CCN(CC)CCNC(=O)c1ccc(NC(C)=O)cc1 [ACECAINIDE] | Bacterial Biotransformation | Compound NOT metabolized
c1ccc2[nH]c(-c3cscn3)nc2c1 [THIABENDAZOLE] | Bacterial Biotransformation | Compound NOT metabolized
CC12CC3CC(C)(C1)CC(N)(C3)C2 [MEMANTINE] | Bacterial Biotransformation | Compound NOT metabolized
COCCCC/C(=N\OCCN)c1ccc(C(F)(F)F)cc1.O=C(O)/C=C\C(=O)O [FLUVOXAMINE MALEATE] | Bacterial Biotransformation | Compound NOT metabolized
CC(C)(C)NCC(O)c1cc(Cl)c(N)c(Cl)c1 (stereo not drawn) [CLENBUTEROL] | Bacterial Biotransformation | Compound NOT metabolized
OCCN(CCO)c1nc(N2CCCCC2)c2nc(N(CCO)CCO)nc(N3CCCCC3)c2n1 [DIPYRIDAMOLE] | Bacterial Biotransformation | Compound metabolized
CC(=O)O[C@H]1C(=O)[C@@]2(C)[C@H]([C@H](OC(=O)c3ccccc3)[C@]3(O)C[C@H](OC(=O)[C@H](O)[C@@H](NC(=O)c4ccccc4)c4ccccc4)C(C)=C1C3(C)C)[C@]1(OC(C)=O)CO[C@@H]1C[C@@H]2O [PACLITAXEL] | Bacterial Biotransformation | Compound NOT metabolized
COc1cc(C(=O)NCc2ccc(OCCN(C)C)cc2)cc(OC)c1OC [TRIMETHOBENZAMIDE] | Bacterial Biotransformation | Compound NOT metabolized
CN(C)CCc1c[nH]c2ccc(CS(=O)(=O)N3CCCC3)cc12 [ALMOTRIPTAN] | Bacterial Biotransformation | Compound NOT metabolized
COc1ccc2cc([C@H](C)C(=O)O)ccc2c1 [NAPROXEN] | Bacterial Biotransformation | Compound metabolized
CCCC(C)(COC(N)=O)COC(=O)NC(C)C (stereo not drawn) [CARISOPRODOL] | Bacterial Biotransformation | Compound metabolized
O=C1CN2Cc3c(ccc(Cl)c3Cl)N=C2N1 [ANAGRELIDE] | Bacterial Biotransformation | Compound NOT metabolized
CCCCCNC(=N)N/N=C/c1c[nH]c2ccc(OC)cc12.O=C(O)/C=C\C(=O)O [TEGASEROD MALEATE] | Bacterial Biotransformation | Compound NOT metabolized
O=C(CCCN1CCC2(CC1)C(=O)NCN2c1ccccc1)c1ccc(F)cc1 [SPIPERONE] | Bacterial Biotransformation | Compound NOT metabolized
COc1ccc(CN2CCNCC2)c(OC)c1OC.Cl.Cl [TRIMETAZIDINE DIHYDROCHLORIDE] | Bacterial Biotransformation | Compound NOT metabolized
CN1[C@@H]2CC[C@H]1C[C@@H](OC(=O)c1c[nH]c3ccccc13)C2 [TROPISETRON] | Bacterial Biotransformation | Compound NOT metabolized
CC(CCc1ccccc1)NCC(O)c1ccc(O)c(C(N)=O)c1 (stereo not drawn) [LABETALOL] | Bacterial Biotransformation | Compound NOT metabolized
CNCC[C@H](Oc1cccc2ccccc12)c1cccs1 [DULOXETINE] | Bacterial Biotransformation | Compound NOT metabolized
CC(=O)CCCCn1c(=O)c2c(ncn2C)n(C)c1=O [PENTOXIFYLLINE] | Bacterial Biotransformation | Compound NOT metabolized
C[C@]12C=CC(=O)C=C1CC[C@@H]1[C@@H]2C(=O)C[C@@]2(C)[C@H]1CC[C@]2(O)C(=O)CO [PREDNISONE] | Bacterial Biotransformation | Compound metabolized
N#Cc1ccc2[nH]cc(CCCCN3CCN(c4ccc5oc(C(N)=O)cc5c4)CC3)c2c1 [VILAZODONE] | Bacterial Biotransformation | Compound metabolized
COc1ccc(/C=C/C(=O)Nc2ccccc2C(=O)O)cc1OC | Bacterial Biotransformation | Compound NOT metabolized
CC#C[C@]1(O)CC[C@H]2[C@@H]3CCC4=CC(=O)CCC4=C3[C@@H](c3ccc(N(C)C)cc3)C[C@@]21C [MIFEPRISTONE] | Bacterial Biotransformation | Compound NOT metabolized
COc1cc(NC(C)CCCN)c2ncccc2c1.O=P(O)(O)O.O=P(O)(O)O (stereo not drawn) [PRIMAQUINE PHOSPHATE] | Bacterial Biotransformation | Compound NOT metabolized
CC(=O)OCC(CCn1cnc2cnc(N)nc21)COC(C)=O [FAMCICLOVIR] | Bacterial Biotransformation | Compound metabolized
Nc1nc(NC2CC2)c2ncn([C@H]3C=C[C@@H](CO)C3)c2n1.Nc1nc(NC2CC2)c2ncn([C@H]3C=C[C@@H](CO)C3)c2n1.O=S(=O)(O)O [ABACAVIR SULFATE] | Bacterial Biotransformation | Compound metabolized
